- System: SW-620
- PROCEDURE DETAILS: NCI tumour cell line growth inhibition, 48 h
The source made the active and inactive calls. No stated cut-off is given here; in the data, active = GI50 up to about 1.1 µM and inactive = higher.
// classify into True = active, False = inactive

Worked examples, 2 compounds total:
1. O=C(CC(C(=O)c1cccs1)c1ccsc1)c1ccco1 (stereo unspecified)	False
2. CN(C)CS/C(N)=N\C(O)C(Cl)(Cl)Cl (stereo unspecified)	False

Record lookup: outcome of this test for C[n+]1c(-c2ccc(/C=N\N3CCN(/N=C/c4ccc(-c5cn6ccccc6[n+]5C)cc4)CC3)cc2)cn2ccccc21 ?
False

# iterate: c1ccc(C[N+]23C(CC[C@H]2c2ccccc2)CC[C@H]3c2ccccc2)cc1 (stereo partly specified)
False

Ok, now CC1OC(CC2C=CCc3c(O)c4c(c(O)c32)C(=O)c2ccccc2C4=O)CC(NC(=O)C(F)(F)F)C1O (stereo unspecified)
False

Follow-up item: Oc1nc(-c2ccccc2)cc(-c2ccccc2O)n1
False

Now give it for CCN(CC)CCOc1ccc(CCc2cc(OC)c(OC)c(OC)c2)cc1 too.
False

---

- System: M19-MEL
- PROCEDURE DETAILS: NCI tumour cell line growth inhibition, 48 h
The source made the active and inactive calls. Rule as the data show it: active = GI50 up to about 1.1 µM and inactive = higher.
Response enum: active, inactive

Would you please look over these solved cases?
1. CCCN(CCC)c1c([N+](=O)[O-])cc(C(=O)N(C)C)cc1[N+](=O)[O-]	inactive
2. CCN(CC)C(c1ccc(N(C)C)cc1)C(c1ccc(N(C)C)cc1)N(CC)CC (configuration not stated)	inactive
3. OC1(C(Sc2ccccc2)Sc2ccccc2)CCCCCC1	inactive
4. C[C@H]1C=C2C(=O)O[C@H]3CC[C@@H](C1)[C@@]23O	inactive
5. CN1C(=O)CN2C(Cl)(Cl)C2(c2ccccc2)c2cc(Cl)ccc21 (configuration not stated)	inactive
6. COc1ccc(C2C(N)=NCC2c2ccccn2)cc1 (configuration not stated)	inactive
7. CC(=O)OCC1OC(n2cc(F)c(=O)[nH]c2=O)C(N)C(OC(C)=O)C1OC(C)=O (configuration not stated)	inactive
8. c1ccc(C(c2ccccc2)c2ccncc2)cc1	inactive

Field: outcome | Entry: Cc1c(Cl)cccc1NC(=O)C(=O)c1c(O)c2ccc(O)cc2oc1=O
inactive

Lookup CCNC(=O)O/N=C1\CCC2[C@@H]3CC=C4C[C@@H](OC(=O)NCC)CC[C@]4(C)C3CC[C@]12C (some centres not stated)
inactive

Then this compound: C#CC1(O)CCC2C3CCc4cc(Oc5nc(F)nc(-c6c7ccccc7c7sc8ccccc8n67)n5)ccc4C3CC[C@@]21C (some centres not stated)
inactive

Next up: O=C1/C=C(/c2ccc(O)cc2)[C@@H](O)Cc2ccc(O)cc2O1
inactive

What about this compound? OCc1nnn2c1CCC2
inactive

Same lookup for CCOC(=O)C(C)(c1cn(C)c2ccccc12)c1cn(C)c2ccccc12 , please.
inactive

And for Cc1c[nH]c2c1C13CC1CN(C(=O)c1cc4cc(NC(=O)c5cc6ccccc6o5)ccc4[nH]1)C3=CC2=O (configuration not stated) ?
active

Same question, NC(=O)COc1c(Br)cc(Br)cc1Br this time
inactive

---

- Tested on: HOP-92
- PROCEDURE DETAILS: NCI tumour cell line growth inhibition, 48 h
Active and inactive are the calls of the source. Cut-off read from the data, not from the text of the source: active = GI50 up to about 1.1 µM and inactive = higher.
Use one of these outcomes when replying: active, inactive

1. CC(C)(C)OC(=O)[C@H]1CCC(=S)N1Cc1ccccc1	inactive
2. CN1C(=O)C(O)CC1c1ccccc1C(F)(F)F (configuration not stated)	inactive
3. Cc1ccc([N+](=O)[O-])c2c(NCCC[N+](C)(C)[O-])c3ccccc3nc12	active
4. COC1CCCCN1C(=O)c1ccccc1 (configuration not stated)	inactive
5. COC1OC(Cn2c(C)nc(Br)c2Br)C(O)C(O)C1O (configuration not stated)	inactive

Call for entry CN1CC[C@]23c4c5ccc(O)c4OC2c2[nH]ncc2C[C@H]3[C@H]1C5 (some centres not stated) :
inactive

Next: Clc1ccc(Cc2nc3ccccc3nc2-c2cccc(Br)c2)cc1
active

Let us now turn to Clc1ccc(CCc2ccncn2)c(Cl)c1
inactive

How about this compound: CCOC(=O)C1=C(C)NC(C)=C(C(=O)OCC)C1c1ccc(Cl)cc1
inactive

One more compound: COC(=O)c1cc(C)ccc1CC(Cc1cccc(C)c1)C(=O)OC (configuration not stated)
inactive

Now the same for CCCOc1ccc(/C=C\c2cc(OC)c(OC)c(OC)c2)cc1
inactive

Another: CC(=O)Nc1ccc(Nc2cc(O)nc(O)n2)cc1
inactive

---

- Test system: A498
- PROCEDURE DETAILS: NCI tumour cell line growth inhibition, 48 h
Active and inactive are the calls of the source. Cut-off read from the data, not from the text of the source: active = GI50 up to about 1.1 µM and inactive = higher.
A correct response names exactly one class from true = active, false = inactive

1) C[C@]12CC/C(=N\OCCN3CCCCC3)C=C1CCC1C2CC[C@@]2(C)C1CC[C@]2(C)O (stereo partly specified)	false
2) NC(=O)c1c([N+](=O)[O-])cc(C(F)(F)F)cc1[N+](=O)[O-]	false
3) Cc1ccccc1NC(=O)C(=O)C(C(=O)c1ccccc1F)C1OC(=O)c2ccccc21 (stereo unspecified)	false
4) CC(=O)N(/N=C\c1ccc([N+](=O)[O-])cc1)c1ccccc1	false
5) CN(C)CCCN1c2ccc3ccccc3c2Sc2cccc(Cl)c21	false

Tell me the recorded outcome of this test for OC1(C(Sc2ccccc2)Sc2ccccc2)CCCCCC1 .
false

Same thing, different molecule: O=C(Nc1ccccc1)N1N=C(c2ccccc2)C1c1ccccc1 (stereo unspecified)
false

---

- Test system: MDA-MB-435
- PROCEDURE DETAILS: NCI tumour cell line growth inhibition, 48 h
Active and inactive are the calls of the source. No stated cut-off is given here; in the data, active = GI50 up to about 1.1 µM and inactive = higher.
READOUT: GI50

1) CN(C)CCCN1c2ccc3ccccc3c2Sc2cccc(Cl)c21	1.98 µM (inactive)
2) O=C(c1ccc(Cl)cc1)N(C(=O)N1CCC(c2ccccc2)CC1)c1ccccc1	25.8 µM (inactive)
3) COc1c2c(cc3occ(-c4ccc(CC=C(C)C)cc4)c(=O)c13)OC(C)(C)C=C2	27 µM (inactive)
4) COc1cc(-c2cc(=O)c3c(OC)c(OC)c(OC)cc3o2)c(OC)c(OC)c1OC	> 75 µM (inactive)

Recorded GI50 for N=C(N)N1CCC(N2CCOCC2)CC1 , please?
> 100 µM (inactive)

Same thing, different compound: COc1ccc2c(c1)C1c3ccccc3CCN1CCC2 (configuration not stated)
19.9 µM (inactive)

Now try O=C(O)c1ccc(/N=C(\C(=N\c2ccc(C(=O)O)cc2)c2ccccc2)c2ccccc2)cc1 .
> 100 µM (inactive)

---

- Tested on: BT-549
- PROCEDURE DETAILS: NCI tumour cell line growth inhibition, 48 h
Calls of active or inactive are those of the source. Rule as the data show it: active = GI50 up to about 1.1 µM and inactive = higher.
Hi! Could you answer with just one of these? TRUE for active, FALSE for inactive

Kindly provide the recorded test outcome for the following molecule: Cc1ccc2nc3sc(=O)sc3nc2c1 [CHINOMETHIONAT]
FALSE

Next molecule: COc1ccc2[nH]c(Cl)c(/C=C3/C(=O)Nc4cc(C)c(OC)cc43)c2c1
FALSE

Then O=C1c2cccc3cccc(c23)C(=O)N1CCCNOCCONCCCN1C(=O)c2cccc3cccc(c23)C1=O ?
FALSE

Please answer likewise for N#CCCN(CCN(C(=O)Nc1ccccc1)c1ccccc1)C(=O)Nc1ccccc1
FALSE

Similarly, CCCN(CCCC(NC(C)=O)C(=O)NCc1ccccc1)C(=O)N(CCCl)N=O (configuration not stated) ?
FALSE

Next entry: Cn1c2c3c(F)c(F)ccc3nc-2cc2ccccc21
FALSE

Field entry: COc1cc(C2c3cc4c(c(O)c3C(=O)C3CCC(=O)N32)OCO4)cc(OC)c1OC (configuration not stated)
FALSE

Follow-up item: C#CCn1c(=O)c(Cl)cn(/C(=C/C(=O)OCC)C(=O)OCC)c1=O
FALSE

How about this molecule: Nc1nc(F)nc2c1ncn2C1OC(CO)C(O)C1O (configuration not stated)
FALSE

Likewise for CCn1cc(C(c2ccc(Cl)cc2)n2ccnc2)c2cc(Br)ccc21 (configuration not stated) ?
FALSE

---

- Test system: KM12
- PROCEDURE DETAILS: NCI tumour cell line growth inhibition, 48 h
Active and inactive are the calls of the source. Cut-off read from the data, not from the text of the source: active = GI50 up to about 1.1 µM and inactive = higher.
Log the outcome using a class from active, inactive

1. Cc1ccccc1-n1c(=O)c2ncn(C3CCCO3)c2n(-c2ccccc2C)c1=S (stereo not given)	inactive
2. COC1=CC(=O)C2[C@H]3Cc4ccccc4[C@H]3C2(C)C1=O (stereo not given in full)	inactive
3. O=C(O)C/C(=C\c1ccccc1)C(=O)O	inactive
4. C/C(=N\O)c1ccc2ccc3ccccc3c2c1	inactive
5. CN(C)C(=S)/N=c1\ssc(=S)n1Cc1ccccn1	inactive

Please indicate how the test categorized CCN(CC)c1c(N(CC)CC)c(=O)c1=O .
inactive

Input O=C1C(c2ccccc2)=C(c2ccccc2)C(c2ccc(Sc3ccc(C4=C(c5ccccc5)C(=O)C(c5ccccc5)=C4c4ccccc4)cc3)cc2)=C1c1ccccc1
inactive

Would you kindly repeat that for CCCO[C@@H]1[C@@H](OC(C)=O)[C@@H](OC(C)=O)C(C)(C)/C=C/[C@H](C)C(=O)[C@@]2(OC(C)=O)C[C@@](C)(OC(C)=O)[C@H](OC(C)=O)[C@@H]2[C@H]2OC(=O)CC[C@@]12OC(=O)c1ccccc1 ?
inactive

What about this compound? N#CCCC1C(C#N)C2CC1C1C3C=CC(C3)C21 (stereo not given)
inactive

Same lookup for CCC1(O)C(=O)OCc2c1cc1n(c2=O)Cc2cc3ccccc3nc2-1 (stereo not given) , please.
active

Again, but for CC(=O)O[C@H]1C[C@](C)(O)[C@@]23CC([C@@H](OC(=O)C(C)(C)O)[C@@H](OC(C)=O)C2(COC(=O)c2ccccc2)[C@H]1OC(C)=O)C(C)(C)O3 (stereo not given in full)
inactive
